// data source = PubChem BioAssay (NCI)

Test system: HOP-62 NSCLC
Method notes: NCI tumour cell line growth inhibition, 48 h
Measured attribute: GI50

So what's the measured GI50 for this one? Cc1nc2cncc(C#Cc3cncc(C(=O)Nc4ccc(CN5CCN(C)CC5)c(C(F)(F)F)c4)c3)c2nc1C
839 nM

Any idea what its GI50 is? The molecule is COc1cc([C@@H]2c3cc4c(cc3C(Br)[C@H]3COC(=O)[C@H]23)OCO4)cc(OC)c1OC (stereo not given in full)
436 nM

// lookup GI50 for Nc1ccc(N=Nc2ccccc2)c(N)n1
33900 nM

Fill in: GI50 of COc1ccc(-c2nsc3c2NC(=O)CC3c2ccc3c(c2)OCO3)cc1 (stereo not given) is ___
1920 nM

New cases:
// returns reported GI50 for input CC(=N\O)/C(C)=N/O.CC(=N\O)/C(C)=N/O.CC(=N\O)/C(C)=N/O.CC(=N\O)/C(C)=N/O.[Cu].[Cu]
24700 nM

###

Test system: HCT-15 colon
Method notes: NCI tumour cell line growth inhibition, 48 h
# cutoff 6 µM applies to TGI; >= gives TRUE, < gives FALSE

Determine whether this compound has TGI no lower than 6 µM: COc1ccccc1/C=C1\CCC(CNc2ccc(Cl)cc2)C1=O (stereo not given)
TRUE

Form field: TGI at least 6 µM? Entry: O=C(CN1CCCCC1)c1ccc2c(c1)Sc1ccccc1O2
TRUE

// inclusive: TGI at least 6 µM? input: S=C1C(=Nc2ccccc2)N(c2ccccc2)/C(=N\c2ccccn2)N1c1ccccc1
TRUE

Further cases:
Quick check: does C=C1C(=O)O[C@H]2[C@H]1CC/C(CNS(=O)(=O)c1ccc3ccccc3c1)=C\CC[C@@]1(C)O[C@@H]21 have TGI greater than or equal to 6 µM?
FALSE

Check the entry COC(=O)c1ccccc1C#CCCCOS(C)(=O)=O : does TGI equal or exceed 6 µM?
TRUE

Would you say O=c1[nH]c2ccccc2nc1/C=C(\O)C(F)F shows TGI at minimum 6 µM?
TRUE

###

System: HOP-62 NSCLC
Method notes: NCI tumour cell line growth inhibition, 48 h
Measured attribute: TGI (µM)
Could you give me the number in µM? Just the number is fine.

Any idea what TGI came out for CCN(CC)c1ccc(N=C2C=CC(=O)c3ncccc32)c(C)c1 on HOP-62 NSCLC?
37.2

Request: TGI, test system HOP-62 NSCLC, entry CC1(C)CN(c2ccccc2)C(=O)C1OC(=O)[C@@]1(C)C[C@@H]2C=C[C@H]1C2 (stereo not given in full)
40.8

Lab note: need TGI for NS(=O)(=O)c1ccc(Nc2c3ccccc3nc3c(C(=O)NCCCN(CCO)CCO)cccc23)cc1 on HOP-62 NSCLC, anyone have it?
66.1

Return TGI measured with HOP-62 NSCLC given this compound: N#Cc1c2ccccc2c2n1-c1ccccc1OC(c1ccccc1)C2=O (stereo not given)
15.8

Provide the documented TGI with HOP-62 NSCLC as the system for O=C(Nc1ccc(Cl)cc1)c1cc2c(cc1O)[nH]c1ccccc12
6.6

What TGI appears in the records for this compound with HOP-62 NSCLC? CC(=O)OCc1cc(=O)n(C)c2c3c4c(cc12)c(C)cc(=O)n4CO3
4.3

###

Tested on: RPMI-8226 leukemia
Method notes: NCI tumour cell line growth inhibition, 48 h
Rule: TRUE for TGI not less than 3 µM, FALSE for anything less.

Consider the worked cases shown below.
Does TGI meet or surpass 3 µM for OCCN(CCO)c1cccc(N(CCO)CCO)c1 ?
TRUE

Decide: TGI of CCCCCCOc1ccc(/C=N/NC(N)=S)cc1 >= 3 µM?
TRUE

For this molecule, is measured TGI 3 µM or higher? NS(=O)(=O)c1ccc(C2C3=C(CCCC3=O)OC3=C2C(=O)c2ccccc2C3=O)cc1 (stereo unspecified)
FALSE

Further cases:
Has CCOC(=O)CCc1c(C(=O)OCC)[nH]c(/C=C2\NC(=O)C(C)=C2CC)c1C a recorded TGI greater than or equal to 3 µM?
TRUE

Quick check, TGI >= 3 µM? O=C(Nc1ccc(Cl)cc1)c1cc2c(cc1O)[nH]c1ccccc12
TRUE

Would you say CC(=Nc1c2ccccc2nc2ccccc12)N(C)C shows TGI at minimum 3 µM?
TRUE

Determine whether measured TGI meets or exceeds 3 µM for CCOC(=O)C(=O)C1C(=O)Nc2ccccc21 (stereo unspecified)
TRUE

Form field: TGI at least 3 µM? Entry: ON(CCc1ccncc1)Cc1ccccc1
TRUE

Is reported TGI greater than or equal to 3 µM here: CC(=O)NC1C(OCc2ccccc2)OC(CO)C(O)C1OCC(=O)NC(C)C(=O)NC(CCC(=O)NCCCCCNc1c2ccccc2nc2cccc([N+](=O)[O-])c12)C(N)=O (stereo unspecified)
FALSE

Is it the case that CCCCCCCCCCCCCC[P+](CCCCCC)(CCCCCC)CCCCCC has TGI reaching or exceeding 3 µM?
FALSE

Exam item: decide whether the reported TGI for CCOC(=O)c1cc2c(n1Cc1cc(OC)cc(OC)c1)-c1oncc1CCC2 is at least 3 µM.
TRUE

Does TGI meet or surpass 3 µM for Cc1ccccc1S(=O)(=O)N1[C@H](c2ccc(Cl)cc2)C(C(=O)N[C@@H](Cc2ccccc2)C(N)=O)=C[C@@H]1C(C)(C)C ?
TRUE

Record COC(=O)c1nc(-c2ccc3c(n2)C(=O)C(N)=C(OC)C3=O)c(N)c(-c2ccc(OC)c(OC)c2O)c1C ; criterion: TGI no lower than 3 µM. Met?
TRUE

Has OCc1cccc(-c2ccc3ncc(-c4nc(NC5CC5)ncc4F)n3c2)c1 a recorded TGI greater than or equal to 3 µM?
FALSE

Could you please find out whether COc1cccc2c1C1(O)C2CCCC12OCCCO2 (stereo unspecified) has TGI that meets 3 µM or exceeds it?
TRUE

TGI >= 3 µM for CC(NC(=O)OCc1ccccc1)NC(=O)C(CC(=O)OC(C)(C)C)NC(=O)OC(C)(C)C (stereo unspecified) ?
TRUE

// inclusive: TGI at least 3 µM? input: CCOC(=O)c1c2c(n(-c3ccc(OC)cc3)c1C)C(=O)C(=O)c1ccccc1-2
FALSE

Reported TGI at or above 3 µM? N#Cc1c(N2CCCC2)ncn(Cc2ccccc2)c1=S
TRUE

Hello, I need to know if O=C(OCCN1CCCCC1)C(c1ccccc1)C1(O)CCSCC1 (stereo unspecified) has measured TGI not below 3 µM. Thanks!
TRUE

Form field: TGI at least 3 µM? Entry: OCC(Cn1cncn1)(c1ccc(F)cc1F)n1cncn1 (stereo unspecified)
TRUE

Entry Cc1ccc(C(=O)O/N=C2/CCCCC2CN(C)C)cc1 (stereo unspecified) : is its TGI no less than 3 µM?
TRUE
